- TESTED ON: E. coli nitroreductase (Escherichia coli)
- Construct: endogenous in cells; host or cells: E. coli B cell paste; endogenous enzyme purified by Phenyl-Sepharose and Q-Sepharose chromatography, not recombinant
- Sequence (P38489 whole entry): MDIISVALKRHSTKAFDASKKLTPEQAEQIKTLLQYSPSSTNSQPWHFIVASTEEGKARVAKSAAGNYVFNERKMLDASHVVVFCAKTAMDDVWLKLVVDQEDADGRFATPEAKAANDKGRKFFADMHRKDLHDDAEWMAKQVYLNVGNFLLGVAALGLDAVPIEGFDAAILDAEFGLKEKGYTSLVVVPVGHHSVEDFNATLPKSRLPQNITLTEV
- RUN DESCRIPTION: Substrate specificity: relative rate of NADH oxidation by HPLC (Table 5)
- Type: biochemical
- STUDY CONDITIONS: relative to CB 1954; 37° C. in air, NADH 500 μM, substrate 100 μM
# RELATIVE RATE OF NADH OXIDATION NR per record follows
Returns: the value as a bare number; no unit string appended.

Examples with their reported RELATIVE RATE OF NADH OXIDATION NR follow.
1) NC(=O)c1cc([N+](=O)[O-])cc([N+](=O)[O-])c1 [3,5-dinitrobenzamide]; 75.5
2) NC(=O)c1cc(Cl)c([N+](=O)[O-])cc1[N+](=O)[O-] [5-chloro-2,4-dinitrobenzamide]; 22.4
3) NC(=O)c1ccc([N+](=O)[O-])cc1 [4-nitrobenzamide]; 5.1

Please look up its RELATIVE RATE OF NADH OXIDATION NR: NC(=O)c1cccc([N+](=O)[O-])c1 [3-nitrobenzamide]
1.8

Please look up its RELATIVE RATE OF NADH OXIDATION NR: NC(=O)c1cc(N2CC2)c([N+](=O)[O-])cc1[N+](=O)[O-] [CB 1954, 5-(aziridin-1-yl)-2,4-dinitrobenzamide]
1.0

Please look up its RELATIVE RATE OF NADH OXIDATION NR: NC(=O)c1cc(NCCO)c([N+](=O)[O-])cc1[N+](=O)[O-]
0.04

Please look up its RELATIVE RATE OF NADH OXIDATION NR: NC(=O)NN=Cc1ccc([N+](=O)[O-])o1
3.6

Please look up its RELATIVE RATE OF NADH OXIDATION NR: NC(=O)c1ccccc1[N+](=O)[O-] [2-nitrobenzamide]
0.06
